B1: library; numbered along this chain (parent)
chain: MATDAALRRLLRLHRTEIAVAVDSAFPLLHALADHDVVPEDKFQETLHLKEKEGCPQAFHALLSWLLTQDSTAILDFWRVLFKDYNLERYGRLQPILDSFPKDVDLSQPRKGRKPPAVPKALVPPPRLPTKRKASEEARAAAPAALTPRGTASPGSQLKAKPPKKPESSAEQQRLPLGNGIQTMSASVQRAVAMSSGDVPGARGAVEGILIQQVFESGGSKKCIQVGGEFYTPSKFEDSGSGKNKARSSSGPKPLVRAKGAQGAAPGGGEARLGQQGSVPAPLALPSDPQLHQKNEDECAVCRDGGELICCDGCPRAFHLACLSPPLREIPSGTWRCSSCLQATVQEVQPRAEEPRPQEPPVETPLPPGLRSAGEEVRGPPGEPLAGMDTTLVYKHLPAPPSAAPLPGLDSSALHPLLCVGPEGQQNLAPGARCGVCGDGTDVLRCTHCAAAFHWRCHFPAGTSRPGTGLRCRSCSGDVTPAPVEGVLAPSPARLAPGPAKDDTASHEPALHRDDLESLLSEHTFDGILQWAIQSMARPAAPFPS

Variants of: B1
PROTOCOL DETAILS: AIRE transcriptional activation functional score (insulin promoter-GFP; nonsense median 0, synonymous median 1) (normalised score); higher = higher AIRE activity (more reporter activation)
TEST PARAMETERS: with insulin promoter-GFP reporter in HEK293
ENDPOINT NAME: AIRE transcriptional activation functional score

- RESIDUE CHANGE: "S187C"
  OBSERVED RESULT: 0.918
- RESIDUE CHANGE: "G91T"
  OBSERVED RESULT: 0.431
- RESIDUE CHANGE: "I74W"
  OBSERVED RESULT: 0.39
- RESIDUE CHANGE: "L11T"
  OBSERVED RESULT: -0.0406
- RESIDUE CHANGE: "P405F"
  OBSERVED RESULT: 1.03
- RESIDUE CHANGE: "T463W"
  OBSERVED RESULT: 1.05
- RESIDUE CHANGE: "P401L"
  OBSERVED RESULT: 0.646
- RESIDUE CHANGE: "L29K"
  OBSERVED RESULT: 0.34
- RESIDUE CHANGE: "H319M"
  OBSERVED RESULT: 0.921
- RESIDUE CHANGE: "G424F"
  OBSERVED RESULT: 1.64
- RESIDUE CHANGE: "R513M"
  OBSERVED RESULT: 1.01
- RESIDUE CHANGE: "G382N"
  OBSERVED RESULT: 0.95
- RESIDUE CHANGE: "A482D"
  OBSERVED RESULT: 1.42
- RESIDUE CHANGE: "L7V"
  OBSERVED RESULT: -0.199
- RESIDUE CHANGE: "A145F"
  OBSERVED RESULT: 1.23
- RESIDUE CHANGE: "D526F"
  OBSERVED RESULT: 0.421
- RESIDUE CHANGE: "R303F"
  OBSERVED RESULT: 1.47
- RESIDUE CHANGE: "K50I"
  OBSERVED RESULT: 0.717
- RESIDUE CHANGE: "L519R"
  OBSERVED RESULT: 0.267
- RESIDUE CHANGE: "V188Y"
  OBSERVED RESULT: 1.56
- RESIDUE CHANGE: "T441M"
  OBSERVED RESULT: 1.24
- RESIDUE CHANGE: "A404C"
  OBSERVED RESULT: 0.451
- RESIDUE CHANGE: "A193P"
  OBSERVED RESULT: 0.42
- RESIDUE CHANGE: "V345L"
  OBSERVED RESULT: 1.03
- RESIDUE CHANGE: "L519F"
  OBSERVED RESULT: 0.808
- RESIDUE CHANGE: "P325V"
  OBSERVED RESULT: 0.965
- RESIDUE CHANGE: "S249Q"
  OBSERVED RESULT: 0.961
- RESIDUE CHANGE: "V279G"
  OBSERVED RESULT: 1.08
- RESIDUE CHANGE: "M194G"
  OBSERVED RESULT: 0.75
- RESIDUE CHANGE: "Q213N"
  OBSERVED RESULT: 0.805
- RESIDUE CHANGE: "G408A"
  OBSERVED RESULT: 0.914
- RESIDUE CHANGE: "P466K"
  OBSERVED RESULT: 0.864
- RESIDUE CHANGE: "Q276K"
  OBSERVED RESULT: 0.954
- RESIDUE CHANGE: "C302P"
  OBSERVED RESULT: 0.251
- RESIDUE CHANGE: "P163R"
  OBSERVED RESULT: 0.66
- RESIDUE CHANGE: "A134Y"
  OBSERVED RESULT: 0.952
- RESIDUE CHANGE: "P148A"
  OBSERVED RESULT: 0.746
- RESIDUE CHANGE: "S239G"
  OBSERVED RESULT: 1.05
- RESIDUE CHANGE: "K159H"
  OBSERVED RESULT: 1.18
- RESIDUE CHANGE: "R257G"
  OBSERVED RESULT: 0.771
- RESIDUE CHANGE: "D312V"
  OBSERVED RESULT: 0.485
- RESIDUE CHANGE: "L495V"
  OBSERVED RESULT: 1.07
- RESIDUE CHANGE: "A284D"
  OBSERVED RESULT: 1.06
- RESIDUE CHANGE: "R257S"
  OBSERVED RESULT: 0.904
- RESIDUE CHANGE: "A134I"
  OBSERVED RESULT: 1.43
- RESIDUE CHANGE: "K50V"
  OBSERVED RESULT: 0.73
- RESIDUE CHANGE: "T183A"
  OBSERVED RESULT: 0.69
- RESIDUE CHANGE: "A537Q"
  OBSERVED RESULT: 0.813
- RESIDUE CHANGE: "P539F"
  OBSERVED RESULT: 0.224
- RESIDUE CHANGE: "P430T"
  OBSERVED RESULT: 0.77
- RESIDUE CHANGE: "S71F"
  OBSERVED RESULT: 0.353
- RESIDUE CHANGE: "S24M"
  OBSERVED RESULT: 1.04
- RESIDUE CHANGE: "S464N"
  OBSERVED RESULT: 0.563
- RESIDUE CHANGE: "R92I"
  OBSERVED RESULT: -0.385
- RESIDUE CHANGE: "E353K"
  OBSERVED RESULT: 1.17
- RESIDUE CHANGE: "D297N"
  OBSERVED RESULT: 0.25
- RESIDUE CHANGE: "E270I"
  OBSERVED RESULT: 0.55
- RESIDUE CHANGE: "L97F"
  OBSERVED RESULT: 1.29
- RESIDUE CHANGE: "Q94K"
  OBSERVED RESULT: 1.21
- RESIDUE CHANGE: "E237Q"
  OBSERVED RESULT: 1.03
- RESIDUE CHANGE: "L7R"
  OBSERVED RESULT: 0.0717
- RESIDUE CHANGE: "A489T"
  OBSERVED RESULT: 1.44
- RESIDUE CHANGE: "R433L"
  OBSERVED RESULT: 0.786
- RESIDUE CHANGE: "P326Y"
  OBSERVED RESULT: 1.14
- RESIDUE CHANGE: "S491W"
  OBSERVED RESULT: 1.03
- RESIDUE CHANGE: "S107Y"
  OBSERVED RESULT: 0.891
- RESIDUE CHANGE: "S220Y"
  OBSERVED RESULT: -0.203
- RESIDUE CHANGE: "T524A"
  OBSERVED RESULT: 0.636
- RESIDUE CHANGE: "L177F"
  OBSERVED RESULT: 1.5
- RESIDUE CHANGE: "A5T"
  OBSERVED RESULT: 1.04
- RESIDUE CHANGE: "D4P"
  OBSERVED RESULT: -0.0888
- RESIDUE CHANGE: "G431D"
  OBSERVED RESULT: 0.852
- RESIDUE CHANGE: "P27R"
  OBSERVED RESULT: 0.196
